- Test system: spiral strips of the pulmonary artery of the guinea-pig
- test: Relaxation of potassium-depolarised, CaCl2-contracted pulmonary artery spiral strips (modified method of Godfraind and Kaba and of Schuman et al.)
- conditionsUsed: time needed after addition of the test substance until the starting value is obtained again
Structures can show the parent of a compound that is named as a salt.
What Duration of action was measured for each of the following?
Number in min, nothing else.

Consider Cc1ccc(S(=O)(=O)N2CCN([n+]3cc(=N)o[n-]3)C(C)(C)C2)cc1.Cl . Its measured Duration of action is 220

Query CCOC(=O)[N-]c1cn(N2CCOCC2)n[o+]1 [Molsidomine, reference compound] yields Duration of action of 100

get_value(item= CC(C)C(=O)N=c1c[n+](N2CCN(S(C)(=O)=O)CC2(C)C)[n-]o1 [CH3, drawing 12] , readout=Duration of action) returns 210

The recorded Duration of action for Cl.N=c1c[n+](N2CCOCC2)[n-]o1 [SIN-1, 3Morpholinosydnone imine hydrochloride, reference compound] is 80

// sample CC1(C)CN(S(C)(=O)=O)CCN1[n+]1cc(=N)o[n-]1.Cl , its Duration of action was 200

Please fill in: Duration of action reported for CN(C)S(=O)(=O)N1CCN([n+]2cc(=N)o[n-]2)C(C)(C)C1 [Example 3, hydrochloride] = 200

====

- System: spiral strips of the pulmonary artery of the guinea-pig
- test: Relaxation of potassium-depolarised, CaCl2-contracted pulmonary artery spiral strips (modified method of Godfraind and Kaba and of Schuman et al.)
- conditionsUsed: Cavia porcellus; 40 mmol/l potassium depolarised, contraction induced by 0.5 mmol/l CaCl2; cumulative addition in 1/2 log 10 steps; average of 4 to 6 vessel strips; read-out: IC50 (concentration of the test substance which inhibits the contraction by 50%)
pIC50: −log10 of the molar value. Counter-ions that a name gives are not always drawn.
pIC50 vs 6: at or above is YES, below is NO.

## Task // inclusive: pIC50 at least 6? input: CC1(C)CN(S(C)(=O)=O)CCN1[n+]1cc(=N)o[n-]1.Cl [Example 1, hydrochloride]
## Result NO

## Task Is pIC50 at least 6? Consider CC(C)C(=O)N=c1c[n+](N2CCN(S(C)(=O)=O)CC2(C)C)[n-]o1 [CH3, drawing 12]
## Result NO

## Task Does CCOC(=O)[N-]c1cn(N2CCOCC2)n[o+]1 [Molsidomine, reference compound] have a reported pIC50 of at least 6?
## Result NO

## Task Hello, I need to know if CN(C)S(=O)(=O)N1CCN([n+]2cc(=N)o[n-]2)C(C)(C)C1 [Example 3, hydrochloride] has measured pIC50 not below 6. Thanks!
## Result NO

## Task Exam item: decide whether the reported pIC50 for Cc1ccc(S(=O)(=O)N2CCN([n+]3cc(=N)o[n-]3)C(C)(C)C2)cc1.Cl [Example 2, hydrochloride] is at least 6.
## Result YES
